Test system: epimastigote forms of Trypanosoma cruzi (Y strain)
Assay: Antiproliferative assay (XTT), epimastigote forms, 96 h
Type: cell-based
Conditions: macrophages vs epimastigote
Hi! Could you tag entries with SIT-M, selectivity index (Macrophages CC50/T. cruzi IC50) below 4 as t, and those at or above as f? Much appreciated.

# COMPOUND, CLASSIFICATION
records = [
    ("COc1ccc(NCc2c(C(=O)N/N=C/c3ccc(-c4cccs4)s3)noc2-c2ccccc2)cc1 [6 bc]", "f"),
    ("COc1ccc(NCc2c(C(=O)N/N=C/c3ccccc3)noc2-c2ccc([N+](=O)[O-])cc2)cc1 [4 ac]", "f"),
    ("COc1ccc(NCc2c(C(=O)N/N=C/c3ccccc3)noc2-c2ccc(Cl)cc2)cc1 [4 dc]", "t"),
    ("NNC(=O)c1noc(-c2ccccc2)c1CNc1ccccc1 [3 ba]", "t"),
    ("NNC(=O)c1noc(-c2ccc(Cl)cc2)c1CNc1ccccc1 [3 da]", "f"),
    ("COc1ccc(NCc2c(C(=O)N/N=C/c3ccc(-c4cccs4)s3)noc2-c2ccc([N+](=O)[O-])cc2)cc1 [6 ac]", "t"),
    ("COc1ccc(NCc2c(C(=O)N/N=C/c3ccc(-c4cccs4)s3)noc2-c2ccc(F)cc2)cc1 [6 cc]", "f"),
    ("O=C(N/N=C/c1ccccc1)c1noc(-c2ccc([N+](=O)[O-])cc2)c1CNc1ccccc1 [4 aa]", "t"),
]
